Would you kindly list IC50 for each of these compounds?
target of assay: myeloperoxidase (Homo sapiens, UniProt P05164)
procedure text: MPO Peroxidation Assay (Amplex Red Assay)
Type: biochemical
study conditions: potency range class, read-out: Amplex Red Assay IC50 value

Q. Please report IC50 for the following compound: Nc1cc(C(CCN[C@H]2CC[C@H](c3ccc(=O)[nH]c3)CC2)c2ccccc2)c2nn[nH]c2n1 (some centres unmarked)
A. 101 to 999 nM

Q. Identify IC50 associated with the compound Nc1cc(C(CCNC2(Cc3ccccc3)CCC(c3ccccc3)CC2)c2ccccc2)c2nn[nH]c2n1 (centres unmarked)
A. 1000 to 10000 nM

Q. Identify IC50 associated with the compound COc1ccncc1[C@H]1CC[C@@H](NCCC(c2ccccc2)c2cc(N)nc3[nH]nnc23)CC1 (some centres unmarked)
A. 1000 to 10000 nM

Q. Give the reported value of IC50 for this record: Nc1cc(C(CCNCC2CCCCC2)c2ccccc2)c2nn[nH]c2n1 (centres unmarked)
A. 101 to 999 nM

Q. Report IC50 for CC1(C)C[C@@H](NCCC(c2ccccc2)c2cc(N)nc3[nH]nnc23)c2ccccc21 (some centres unmarked)
A. 101 to 999 nM

Q. Give the value of IC50 reported for the following: Nc1cc([C@H](Cc2nc3ccc(-c4ccc(Cl)cc4)cc3[nH]2)c2ccccc2)c2nn[nH]c2n1
A. 101 to 999 nM

Q. Specify reported IC50 for the compound shown: Nc1cc(C(CCN[C@H]2CC[C@@H](c3ccncc3)CC2)c2ccccc2)c2nn[nH]c2n1 (some centres unmarked)
A. 101 to 999 nM

Q. Tell me its IC50 given Cc1ccc(F)c(C(CCN[C@H]2CC[C@H](c3ccccc3)CC2)c2cc(N)nc3[nH]nnc23)c1 (some centres unmarked) as the entry.
A. 1000 to 10000 nM

----------
target of assay: myeloperoxidase (Homo sapiens, UniProt P05164)
procedure text: MPO Chlorination Assay (APF Assay)
Type: biochemical
study conditions: potency range class, read-out: APF Assay IC50 value
pIC50: −log10 of the molar value.
measured quantity: pIC50

Q. Return reported pIC50. Input molecule: Nc1cc(C(CCN[C@H]2C[C@@H](c3ccccc3)C2)c2ccccc2)c2nn[nH]c2n1 (stereo partly shown)
A. 7.00 to 9.00

Q. Assign pIC50 to the following record: Nc1cc(C(CCN[C@H]2C[C@H](c3ccccc3)Cc3ccccc32)c2ccccc2)c2nn[nH]c2n1 (stereo partly shown)
A. 7.00 to 9.00

Q. Write down pIC50 measured for item Cn1c(C[C@H](c2ccccc2)c2cc(N)nc3[nH]nnc23)nc2c(-c3ccccc3)cccc21
A. 5.00 to 6.00

Q. Give recorded pIC50. Nc1cc(C(CCC(=O)Cc2ccccc2)c2ccccc2)c2nn[nH]c2n1 (stereo not shown)
A. 6.00 to 7.00

----------
target of assay: myeloperoxidase (Homo sapiens)
Sequence (P05164 49-745): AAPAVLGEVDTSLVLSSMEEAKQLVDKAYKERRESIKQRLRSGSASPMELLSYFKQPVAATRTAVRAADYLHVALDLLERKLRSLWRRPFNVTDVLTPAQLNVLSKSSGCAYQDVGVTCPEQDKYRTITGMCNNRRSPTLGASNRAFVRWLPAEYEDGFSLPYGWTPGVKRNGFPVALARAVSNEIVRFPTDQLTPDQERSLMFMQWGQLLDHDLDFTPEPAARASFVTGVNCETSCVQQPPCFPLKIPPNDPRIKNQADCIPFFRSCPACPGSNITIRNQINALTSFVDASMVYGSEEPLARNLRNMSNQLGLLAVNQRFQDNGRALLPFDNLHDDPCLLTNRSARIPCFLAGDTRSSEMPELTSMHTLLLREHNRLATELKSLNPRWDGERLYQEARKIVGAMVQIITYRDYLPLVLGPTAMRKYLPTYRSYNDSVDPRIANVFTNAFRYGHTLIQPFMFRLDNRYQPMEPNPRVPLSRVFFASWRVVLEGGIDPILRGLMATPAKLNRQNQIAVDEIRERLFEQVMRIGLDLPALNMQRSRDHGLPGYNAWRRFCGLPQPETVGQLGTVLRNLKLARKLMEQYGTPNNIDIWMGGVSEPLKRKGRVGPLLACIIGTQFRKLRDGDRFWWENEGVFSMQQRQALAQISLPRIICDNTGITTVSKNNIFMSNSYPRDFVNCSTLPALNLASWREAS
procedure text: MPO Chlorination Assay (APF Assay)
Assay type: biochemical
study conditions: potency range class, read-out: APF Assay IC50 value
pIC50: −log10 of the molar value.
I'd appreciate it if you could supply pIC50 values for the items below.

Q. Check myeloperoxidase (Homo sapiens) data and give pIC50 for Nc1cc(C(CCNC2CCC(c3ccc(F)cc3)CC2)c2ccccc2)c2nn[nH]c2n1 (stereo not shown) [Example 125] .
A. 7.00 to 9.00

Q. Report pIC50 on myeloperoxidase (Homo sapiens) for this entry: Nc1cc(C(CCN[C@H]2CC[C@H](c3ccccc3)CC2)c2cccc(F)c2)c2nn[nH]c2n1 (stereo partly shown)
A. 7.00 to 9.00

Q. Fill in pIC50 for N#Cc1cccc(C(CCNC2CCC(c3ccccc3)CC2)c2cc(N)nc3[nH]nnc23)c1 (stereo not shown) tested with myeloperoxidase (Homo sapiens).
A. 7.00 to 9.00

Q. Name the value of pIC50 reported for Nc1cc([C@H](CCCN2CCC(c3cccc(C(F)(F)F)c3)C(O)C2)c2ccccc2)c2nn[nH]c2n1 (stereo partly shown) when tested on myeloperoxidase (Homo sapiens).
A. 6.00 to 7.00
